Biological target: Sut1 (UniProt P53032)
Sequence: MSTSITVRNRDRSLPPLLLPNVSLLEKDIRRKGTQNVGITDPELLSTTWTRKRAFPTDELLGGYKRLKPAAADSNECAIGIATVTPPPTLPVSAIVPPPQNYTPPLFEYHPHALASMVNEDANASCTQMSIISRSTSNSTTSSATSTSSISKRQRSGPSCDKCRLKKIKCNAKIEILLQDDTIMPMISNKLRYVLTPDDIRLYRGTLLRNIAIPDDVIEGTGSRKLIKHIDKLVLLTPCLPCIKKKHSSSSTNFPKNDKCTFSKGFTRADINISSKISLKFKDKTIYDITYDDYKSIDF
Test: PBM E-score (8-mer binding enrichment) (E-score (-0.5 to 0.5)); higher = stronger / more preferred TF binding
Settings: protein concentration: 200 nM; construct: GST-full length
Whole data set: some 33,000 sequences, median “E-score (-0.5 to 0.5)” near -0.017, cut for the highest 2% near 0.3. What follows is part of a selection rich in the highest values, with near analogues and random picks from the rest.
Each entry belongs to exactly one class, chosen by where its PBM E-score falls: band A: < -0.05; band B: ≥ -0.05 and < 0.1; band C: ≥ 0.1

Class (by measured PBM E-score) for `CGCTCCGC`
band B

Can you handle `AGTTTTAT` next?
band C

What do you have for `CCACCGGA` ?
band C

Proceed to `GGGAGTCA`
band A

Please give the result for `AATGGCAA` too.
band B

Also check `ACCCAACG`
band B

Proceed to `CCTAAAGA`
band B

Same question, `TACACTCA` this time
band B

Same again, this time with `GGCGAGCC`
band A

For `CACCGGAG` then?
band C

Next up: `GCGCTTGA`
band B

Entry to check: `AGAGTAAG`
band B

Queued: `AGTACGGC`
band B

Another: `AAAGTGAA`
band C

Subsequent entry: `GGATTTCA`
band C

Same lookup for `AAGCTCTC` , please.
band A

Thanks! And `CGCAACCC` ?
band B

Here is the next sequence: `CTTGAACA`
band B

Can you check `CCAAGGGG` next?
band A

Here is the next sequence: `CACCGGGA`
band A

Now consider `CATTTGCA` and answer again.
band B

Try the sequence `CCACACGG`
band A

Follow-up item: `CACCGGCG`
band C

Same for `CCACCGGG`
band B

Can you handle `CCCGTGCC` next?
band A

Request: `TGGCAGAA`
band A

Also need `CACCGTGC` , thanks.
band A

Proceed to `AATCCGAG`
band B

Lookup `ATCACGGC`
band B

Now try `GGTGCAAA` .
band B

Same again, this time with `TACCGGAA`
band C

Check `AGCCTCAG` too.
band A

Similarly, `AGTCCGAG` ?
band C

Request: `AAGCCCTC`
band A

What do you have for `ATGTGGGG` ?
band A

Follow-up item: `AACCAGCT`
band A

Same lookup for `AGTACGGA` , please.
band C

Param item: `AGGAGTCC`
band C

Consider next the sequence `GGTCCGAC` in the same way.
band C

Do the same for `CCACCGGC` please
band B

Query `CGCGACAC` next
band B

Consider next the sequence `CCTGCTAC` in the same way.
band A

Please do the same for `ACCTCCGG` as well.
band C

Next record, please: `AGTCCAAA`
band C

# iterate: `ATCACGGG`
band A

`AATCCGAT` , same question.
band C

// same read-out, input: `ACACCGGA`
band C

Lookup `CTCCGTGA`
band C

Again, but for `CACCCACG`
band A

Similarly, `ACAGTCCC` ?
band A

Then what about the sequence `CGTCCGAC` ?
band A

And then `CTGCGTTC` , what is it?
band B

Likewise for `CCCTCGAC` ?
band A

Please answer likewise for `AGCTCCTG`
band A

Same question for `AGTCCGAT` please.
band C

What about this sequence? `GTTACACA`
band A

Follow-up entry: `TCACCGGA`
band C

Next up: `AACCCCGA`
band C

Item: `TCACCGAA`
band C

Would you kindly repeat that for `ACCTTGCT` ?
band A

Consider next the sequence `GGCTCCGA` in the same way.
band C

Same read-out for `CACCGGTA` ?
band A

Now this one: `AACCCCGG`
band C

Please give the result for `GACTCATA` too.
band B

Lookup `GGCTCCAA`
band B

What do you have for `TCACTTCA` ?
band A

Another: `ACCTCCGT`
band C

Same question, `GGTACGGA` this time
band C

Now this one: `AACCGGAC`
band C

And `GACCGGAC` ?
band C

Next record, please: `ACACCGGT`
band B

Moving on to `CAGAGTCC`
band C
